Measured pIC50 accompanies every entry in the list below.
Assay: Inhibition of Plasmodium falciparum falcipain-2 using Z-Leu-Arg-AMC as substrate preincubated for 10 mins followed by substrate addition by spectrofluorometric analysis
pIC50: −log10 of the molar value.

See these solved cases before continuing.
O=C(NCCNc1ccnc2cc(Cl)ccc12)[C@H](Cc1ccccc1)Nc1c(N[C@@H](Cc2ccccc2)C(=O)NCCNc2ccnc3cc(Cl)ccc23)c(=O)c1=O = < 4.30
CCCCOc1c(NCCCNc2ccnc3cc(Cl)ccc23)c(=O)c1=O = < 5.00
COc1c(NCCNc2ccnc3cc(Cl)ccc23)c(=O)c1=O = < 5.00
CCCCOc1c(NCCNc2ccnc3cc(Cl)ccc23)c(=O)c1=O = < 5.00

Next compound, please.
Suppose we examine the compound "CC(C)C[C@H](NC(=O)[C@H]1O[C@@H]1C(=O)O)C(=O)NCCCCN=C(N)N" ; what pIC50 value has been reported?
7.22
